Reference source: paper PMC11513920

Assay: Mouse plasma stability
Assay type: in vitro ADME
Conditions: male, BALB/C, mouse, plasma; 3 μM, 37 °C, 240 min course; read-out: mouse plasma t1/2
Method: Human plasma (lithium heparin (LiHep) mixed, gender pooled, 0.2 μm filtered) and mouse plasma (BALB/C, LiHep mixed, male pooled, 0.2 μm filtered) were purchased from BioIVT. Procaine (Sigma-Aldrich) served as a positive control for both human and mouse plasma experiments. […] Finally, the negative control experiment was conducted with test compounds in Dulbecco’s phosphate buffered saline without calcium and magnesium (DPBS, Fisher Scientific, 143 μL) and analyzed at the 240 min time point. […]
recorded.metric: half-life at 3 μM (min)
Kindly provide the numeric value in min only, without the unit symbol.

// half-life at 3 μM lookup, compound = CCN(CC)CCOC(=O)c1ccc(N)cc1 [Procaine, reference compound] , result: 0.7

----------
In this section we review reported concentration at 0.1 h values for a set of compounds.
experiment: Mouse plasma pharmacokinetics after intravenous dose; assay type: in vivo, male C57BL/6 mice; conditions: male, C57BL/6, mouse, iv, i.v. 3 mg/kg, 0.1 h, read-out: mean prodrug concentration in plasma
Kindly provide the numeric value in ng/mL only, without the unit symbol.

[
  {
    "compound": "CCCCCCCCCCCCCCCCSCCCOP(=O)(O)CO[C@H](C)Cn1cnc2c(N)ncnc21.N [2a]",
    "display.unit": "ng/mL",
    "concentration at 0.1 h": 2060
  },
  {
    "compound": "C[C@H](Cn1cnc2c(N)ncnc21)OCP(=O)(O)OCCCSCCCCCCCCCCCCC1CCCCC1.N [16h]",
    "display.unit": "ng/mL",
    "concentration at 0.1 h": 2380
  }
]

// concentration at 0.1 h lookup, compound = C[C@H](Cn1cnc2c(N)ncnc21)OCP(=O)(O)OCCCSCCCCCCCCCCCCc1ccc(F)cc1.N [16g] , result: 863

----------
assay: Mouse tissue (liver, kidney, brain) pharmacokinetics after oral dose; type: in vivo, male C57BL/6 mice; details: male, C57BL/6, mouse, po; brain, prodrug, p.o. 10 mg/kg
In this section we review reported Cmax at 24 h values for a set of molecules.
Kindly provide the numeric value in ng/mL only, without the unit symbol.

[
  {
    "molecule": "C[C@H](Cn1cnc2c(N)ncnc21)OCP(=O)(O)OCCCSCCCCCCCCCCCCC1CCCCC1.N [16h]",
    "recorded.metric": "Cmax at 24 h",
    "endpoint.value": 16.2
  },
  {
    "molecule": "CCCCCCCCCCCCCCCCSCCCOP(=O)(O)CO[C@H](C)Cn1cnc2c(N)ncnc21.N [2a]",
    "recorded.metric": "Cmax at 24 h",
    "endpoint.value": 43.8
  }
]

Now for another entry.
// Cmax at 24 h lookup, molecule = C[C@H](Cn1cnc2c(N)ncnc21)OCP(=O)(O)OCCCSCCCCCCCCCCCCc1ccc(F)cc1.N [16g] , result: 5.74

----------
In this section we review reported mean prodrug concentration in HepaRG cells values for a set of compounds.
system: HepaRG cells; test: HepaRG cellular uptake; conditions: 20 µM, 7 h
Kindly provide the numeric value in ng/mL only, without the unit symbol.

Would you please look over these solved cases?
[
  {
    "compound": "C[C@H](Cn1cnc2c(N)ncnc21)OCP(=O)(O)OCCCSCCCCCCCCCCCCc1ccc(F)cc1.N [16g]",
    "endpoint.value": 229.08
  },
  {
    "compound": "CCCCCCCCCCCCCCCCSCCCOP(=O)(O)CO[C@H](C)Cn1cnc2c(N)ncnc21.N",
    "endpoint.value": 994.36
  },
  {
    "compound": "C[C@H](Cn1cnc2c(N)ncnc21)OCP(=O)(O)OCCCSCCCCCCCCCCCCC1CCCCC1.N [16h]",
    "endpoint.value": 1616.17
  },
  {
    "compound": "CCCCCCCCCCCCCCCCOCCCOP(=O)(O)CO[C@H](C)Cn1cnc2c(N)ncnc21",
    "endpoint.value": 536.47
  }
]

Now for another entry.
// mean prodrug concentration in HepaRG cells lookup, compound = C[C@H](Cn1cnc2c(N)ncnc21)OCP(=O)(O)OCCCOCCCCCCCCCCCCCCCC(F)(F)F.N , result: 417.13

----------
assay: Mouse liver microsome stability; settings: CD-1, mouse, microsomes
In this section we review reported half-life at 3 μM values for a set of compounds.

[
  {
    "compound": "C[C@H](Cn1cnc2c(N)ncnc21)OCP(=O)(O)OCCCSCCCCCCCCCCCCC1CCCCC1.N [16h]",
    "half-life at 3 μM": "> 2 h"
  },
  {
    "compound": "CCCCCCCCCCCCCCCCSCCCOP(=O)(O)CO[C@H](C)Cn1cnc2c(N)ncnc21.N",
    "half-life at 3 μM": "> 2 h"
  }
]

Now for another entry.
// half-life at 3 μM lookup, compound = C[C@H](Cn1cnc2c(N)ncnc21)OCP(=O)(O)OCCCSCCCCCCCCCCCCc1ccc(F)cc1.N [16g] , result: > 2 h

----------
experiment: HepaRG cellular metabolic stability; settings: human, other cell line, HepaRG Clint,u, calculated from cellular t1/2
recorded.metric: hepatocyte CLint at 20 μM (µL/min/1e6 cells)
Kindly provide the numeric value in µL/min/1e6 cells only, without the unit symbol.

[
  {
    "molecule": "C[C@H](Cn1cnc2c(N)ncnc21)OCP(=O)(O)OCCCSCCCCCCCCCCCCCCC(C)(C)C.N [16e]",
    "hepatocyte CLint at 20 μM / µL/min/1e6 cells": 10.2
  },
  {
    "molecule": "CCCCCCCCCCCCCCCCSCCCOP(=O)(O)CO[C@H](C)Cn1cnc2c(N)ncnc21.N",
    "hepatocyte CLint at 20 μM / µL/min/1e6 cells": 14.1
  }
]

Now for another entry.
// hepatocyte CLint at 20 μM lookup, molecule = C[C@H](Cn1cnc2c(N)ncnc21)OCP(=O)(O)OCCCSCCCCCCCCCCCCc1ccc(F)cc1.N [16g] , result: 27

----------
assay: Mouse tissue (liver, kidney, brain) pharmacokinetics after oral dose; assay type: in vivo, male C57BL/6 mice; details: male, C57BL/6, mouse, po; brain, prodrug, p.o. 10 mg/kg
recorded.metric: Tmax at 24 h (h)
Kindly provide the numeric value in h only, without the unit symbol.

// Tmax at 24 h lookup, compound = C[C@H](Cn1cnc2c(N)ncnc21)OCP(=O)(O)OCCCSCCCCCCCCCCCCC1CCCCC1.N [16h] , result: 1

----------
experiment: Mouse tissue (liver, kidney, brain) pharmacokinetics after oral dose; assay type: in vivo, male C57BL/6 mice; settings: male, C57BL/6, mouse, kidney, po; p.o. 10 mg/kg, 1 h; read-out: mean prodrug concentration in kidney
In this section we review reported concentration at 1 h values for a set of compounds.
Kindly provide the numeric value in ng/mL only, without the unit symbol.

[
  {
    "compound": "C[C@H](Cn1cnc2c(N)ncnc21)OCP(=O)(O)OCCCSCCCCCCCCCCCCC1CCCCC1.N [16h]",
    "concentration at 1 h [ng/mL]": 279
  },
  {
    "compound": "C[C@H](Cn1cnc2c(N)ncnc21)OCP(=O)(O)OCCCSCCCCCCCCCCCCc1ccc(F)cc1.N [16g]",
    "concentration at 1 h [ng/mL]": 310
  }
]

Now for another entry.
// concentration at 1 h lookup, compound = CCCCCCCCCCCCCCCCSCCCOP(=O)(O)CO[C@H](C)Cn1cnc2c(N)ncnc21.N , result: 581

----------
test: Mouse plasma pharmacokinetics after intravenous dose; format: in vivo, male C57BL/6 mice; details: male, C57BL/6, mouse, iv, i.v. 3 mg/kg, 0.5 h, read-out: mean prodrug concentration in plasma
In this section we review reported concentration at 0.5 h values for a set of compounds.
Kindly provide the numeric value in ng/mL only, without the unit symbol.

Would you please look over these solved cases?
[
  {
    "compound": "CCCCCCCCCCCCCCCCSCCCOP(=O)(O)CO[C@H](C)Cn1cnc2c(N)ncnc21.N",
    "concentration at 0.5 h / ng/mL": 134
  },
  {
    "compound": "C[C@H](Cn1cnc2c(N)ncnc21)OCP(=O)(O)OCCCSCCCCCCCCCCCCc1ccc(F)cc1.N [16g]",
    "concentration at 0.5 h / ng/mL": 227
  }
]

// concentration at 0.5 h lookup, compound = C[C@H](Cn1cnc2c(N)ncnc21)OCP(=O)(O)OCCCSCCCCCCCCCCCCC1CCCCC1.N [16h] , result: 406

----------
test: HepaRG cellular uptake; details: human, HepaRG Cmax, 20 μM, HSA formulation 5:1, recorded after 3 h incubation
Label label 0 if Cmax at 3 h, 20 μM falls below 800 ng/mL; label label 1 in every other case.

Example cases with answers are listed next.
[
  {
    "compound": "CCCCCCCCCCCCCCCCSCCCOP(=O)(O)CO[C@H](C)Cn1cnc2c(N)ncnc21.N",
    "qualitative.label": "label 1"
  },
  {
    "compound": "C[C@H](Cn1cnc2c(N)ncnc21)OCP(=O)(O)OCCCOCCCCCCCCCCCCCCCC(F)(F)F.N",
    "qualitative.label": "label 0"
  }
]

Threshold query (Cmax at 3 h, 20 μM >= 800 ng/mL) on C[C@H](Cn1cnc2c(N)ncnc21)OCP(=O)(O)OCCCSCCCCCCCCCCCCCCC(C)(C)C.N [16e]
label 1

Threshold query (Cmax at 3 h, 20 μM >= 800 ng/mL) on C[C@H](Cn1cnc2c(N)ncnc21)OCP(=O)(O)OCCCSCCCCCCCCCCCCC1CCCCC1.N [16h]
label 1

Threshold query (Cmax at 3 h, 20 μM >= 800 ng/mL) on C[C@H](Cn1cnc2c(N)ncnc21)OCP(=O)(O)OCCCSCCCCCCCCCCCCc1ccc(F)cc1.N [16g]
label 0

Threshold query (Cmax at 3 h, 20 μM >= 800 ng/mL) on C[C@H](Cn1cnc2c(N)ncnc21)OCP(=O)(O)OCCCSCCCCCCCCCCCCC#CC(C)(C)C.N [15e]
label 0
